- System: OVCAR-8 ovarian
- measurementNotes: NCI tumour cell line growth inhibition, 48 h
Starred links: 1 amine or outer side, 2 acyl side, 3 side chain; linkers in the order of their positions; H or OH if unused. Positions of bridges follow the written chain, without caps; N, C: chain ends. Non-standard residues stand in square brackets, D forms with d. Residues, ends and D or L forms follow the SMILES beside them. Chains are numbered I, II in the order given. Actinocin(9to1) = Cc1c2oc3c(C)ccc(C(=O)[*:1])c3nc-2c(C(=O)[*:2])c(N)c1=O; NMeY = CN[CH](Cc1ccc(O)cc1)C(=O)O; Sar = CNCC(=O)O
propertyName: TGI (µM)
One number for each entry, in µM.

compound	TGI / µM
O=C1C=CC(=O)c2c1ccc1c3ccccc3n(CCCCCn3c4ccccc4c4ccc5c(c43)C(=O)C=CC5=O)c21	46.9
Cc1c2oc3c(C)ccc(C(=O)NC4C(=O)NC(C(C)C)C(=O)N5CCCC5C(=O)N(C)CC(=O)N(C)C(Cc5ccc(O)cc5)C(=O)OC4C)c3nc-2c(C(=O)NC2C(=O)NC(C(C)C)C(=O)N3CCCC3C(=O)N(C)CC(=O)N(C)C(Cc3ccc(O)cc3)C(=O)OC2C)c(N)c1=O (stereo unspecified) (I: TVP[Sar][NMeY] / II: TVP[Sar][NMeY]; ester I:1-I:C, II:1-II:C; linker I:N-II:N via Actinocin(9to1); configuration not given here)	0.612

Kindly review the next compound as well.
QUERY: TGI for Cn1c(I)c(C#CCO[Si](C)(C)C(C)(C)C)c(=O)[nH]c1=O ?
RESULT: 51.7

* * *

- Tested on: SF-539 CNS
- measurementNotes: NCI tumour cell line growth inhibition, 48 h
Give TGI for every item shown.

compound	testTarget	TGI
CCN(CC)CCCN1CCc2c([nH]c3ccccc23)C1c1cccnc1 (stereo not drawn)	SF-539 CNS	> 100 µM

Would you mind listing TGI for each of the following compounds?
1. O=c1/c(=C/c2ccccc2[N+](=O)[O-])sc2nnc(-c3ccco3)n12
2. COc1ccc(/C=C2\CCNC2=O)cc1

RESULT:
1: 33.9 µM; 2: > 100 µM

* * *

- Test system: MALME-3M melanoma
- measurementNotes: NCI tumour cell line growth inhibition, 48 h; in the data active = GI50 below about 0.43 µM; inactive = the rest
In this exercise, the only acceptable responses are active, inactive

Please review the entries below; each comes with its answer.
compound	cat
CCN1CCN(C(=O)[C@@]2(C)CC[C@]3(C)CC[C@]4(C)C(=CC(=O)[C@@H]5[C@@]6(C)CC[C@H](OC7C[C@@H](O)[C@@H](O)C(C)O7)C(C)(C)[C@@H]6CC[C@]54C)[C@@H]3C2)CC1 (stereo not given in full)	inactive
C#CCOc1cccc(-c2ncc3cc(NC(=O)CCl)ccc3n2)c1	inactive

QUERY: // outcome(item) with item = CN(C)CCNC(=O)c1cccc2ccc(-c3ccc(O)cc3)nc12
RESULT: inactive

QUERY: Per the assay record, what outcome was assigned to COc1cccc2c1C(=O)c1c(O)c3c(c(O)c1C2=O)C[C@@](O)(C(=O)CO)C[C@@H]3OC1CC(N)CC(C)O1 (stereo not given in full) ?
RESULT: active

QUERY: Could you check what this test reported for O=c1cc[nH]c(=O)[nH]1 ?
RESULT: inactive

QUERY: Query: recorded result category for Nc1ccc([N+](=O)[O-])cc1N=C/C=C/c1ccccc1 in this test
RESULT: inactive

* * *

Assignment: determine reported TGI for the given compounds.
- Test system: BT-549 breast
- measurementNotes: NCI tumour cell line growth inhibition, 48 h

Please look at the items below and tell me TGI for each one, in order.
1. COC(=O)c1ccc2c(c1)nc(NC(=O)c1ccccc1)n2CCCc1ccccc1
2. Cc1c(C)c2c(c(N)c1C#N)C(=O)N(NC(=O)c1ccccc1)C2=O
3. Nc1nn2cc(F)cnc2c1C(=O)Nc1cncc(F)c1N1CCC(C(=O)N2CCN(C3COC3)CC2)CC1
4. c1ccc(-c2nnc(-c3ccccn3)s2)nc1
5. Cc1cc(C)c2c(n1)sc1c(Nc3ccc(Cl)cc3)ncnc12
6. O=c1[nH]cnc2c1cnn2Cc1cn(CCCCO)nn1

RESULT:
1. > 100 µM
2. > 100 µM
3. 1.55 µM
4. > 100 µM
5. > 100 µM
6. > 100 µM

* * *

- Tested on: M19-MEL melanoma
- measurementNotes: NCI tumour cell line growth inhibition, 48 h
For each of the compounds below, state its TGI.

Below, 4 compounds whose answers are already recorded.
compound	TGI
O=C(Nc1ccn(CCO)c(=O)n1)c1ccccc1	> 100 µM
CC(C)Cc1ccc(C(C)C(=O)N2CCN(/C=C/c3ccccc3)CC2)cc1 (stereo unspecified)	29.7 µM
CC1(C)COC(C2(C)C(=O)C=C(c3ccccc3)c3ccccc32)=N1 (stereo unspecified)	> 100 µM
CC(=O)OC1/C=C(\C)C(OC(C)=O)C/C=C(/C)CCC2C(/C=C/C1=O)C2(C)C (stereo unspecified)	> 100 µM

Give one value of TGI per listed compound.
1. C=CCc1c(O)c2c(c3oc(=O)cc(C)c13)CC(C)O2 (stereo unspecified)
2. Nc1nc(Cl)cc(NCCCCCCCCNc2cc(Cl)nc(N)n2)n1

RESULT:
1: > 100 µM; 2: > 100 µM

* * *

- System: HCT-116 colon
- measurementNotes: NCI tumour cell line growth inhibition, 48 h
propertyName: TGI

Required: TGI, one value per molecule below.
1. CCOC(=O)C1=CN(C)C=C(C(=O)OCC)C1c1cc(Br)c(OCC)c(OC)c1
2. O=c1oc2ccccc2cc1-c1cc2ccccn2c1
3. CN1CCN(C2CCN(C(=O)Nc3cc(Oc4ccc(NC(=O)C5(C(=O)Nc6ccc(F)cc6)CC5)c(F)c4)ccn3)CC2)CC1
4. O=C(N/N=C(\c1ccccc1)c1ccccn1)NC1CCCCC1
5. CC1(C)[C@@H](Cn2ccc(=O)[nH]c2=O)CC[C@@]1(C)CO

RESULT:
["> 100 µM", "> 100 µM", "> 10 µM", "> 100 µM", "> 100 µM"]

* * *

- Test system: SF-295 CNS
- measurementNotes: NCI tumour cell line growth inhibition, 48 h
Starred links: 1 amine or outer side, 2 acyl side, 3 side chain; linkers in the order of their positions; H or OH if unused. Positions of bridges follow the written chain, without caps; N, C: chain ends. Non-standard residues stand in square brackets, D forms with d. Residues, ends and D or L forms follow the SMILES beside them. Chains are numbered I, II in the order given. Actinocin(9to1) = Cc1c2oc3c(C)ccc(C(=O)[*:1])c3nc-2c(C(=O)[*:2])c(N)c1=O; NMeY = CN[CH](Cc1ccc(O)cc1)C(=O)O; Sar = CNCC(=O)O
Hi there, I'd appreciate the recorded TGI for every entry that follows.

Consider the worked cases shown below.
compound	TGI
N#C[C@H](c1ccccn1)c1nc2ccccc2nc1Cl	> 100 µM
Cc1c2oc3c(C)ccc(C(=O)NC4C(=O)NC(C(C)C)C(=O)N5CCCC5C(=O)N(C)CC(=O)N(C)C(Cc5ccc(O)cc5)C(=O)OC4C)c3nc-2c(C(=O)NC2C(=O)NC(C(C)C)C(=O)N3CCCC3C(=O)N(C)CC(=O)N(C)C(Cc3ccc(O)cc3)C(=O)OC2C)c(N)c1=O (configuration not stated) (I: TVP[Sar][NMeY] / II: TVP[Sar][NMeY]; ester I:1-I:C, II:1-II:C; linker I:N-II:N via Actinocin(9to1); configuration not given here)	> 1 µM
CC1(C)OC(C(=O)Nc2cc3c4ccccc4ccc3c3ccccc23)C(C(=O)N2CCCCC2)O1 (configuration not stated)	> 100 µM

Quick request: TGI for each listed item, please.
1. C=CCCON(C(=O)OC(C)(C)C)C(C)(C)C
2. COc1cc(/C=C/C(=O)c2ccc(O)c(OC)c2)ccc1O
3. CCC12CCCN(Cc3ccccc3)C1c1c(n(C)c3ccccc13)CC2 (configuration not stated)
4. COc1cc(C2c3cc4c(cc3OC(N3CCCCC3)C2C)OCO4)cc(OC)c1O (configuration not stated)

RESULT:
1: > 100 µM; 2: 49 µM; 3: > 253 µM; 4: 13.4 µM

* * *

- Test system: MDA-MB-435
- measurementNotes: NCI tumour cell line growth inhibition, 48 h
propertyName: TGI (µM)
Give bare numbers, in µM.

molecule	testTarget	TGI (µM)
COc1cc(C2c3cc4c(cc3OC(N3CCCCC3)C2C)OCO4)cc(OC)c1O (stereo not given)	MDA-MB-435	5.92
COc1cccc(C2CC(C)(O)Oc3cc4c(cc32)OCO4)c1O (stereo not given)	MDA-MB-435	9.77
COc1ccccc1/C=N\N/C(N)=N\N=C\c1ccccc1OC	MDA-MB-435	0.0824

Note: attention shifts to another entry.
QUERY: Could you tell me which TGI is on file for CC/C=C\C[C@H](O)C/C=C1/C(=O)C(Cl)=C[C@@H]1C/C=C\CCCC(=O)OC ?
RESULT: 1.22
